# SYSTEM NAME: UMP-CMP kinase (Homo sapiens, UniProt P30085)
# Construct: This cDNA codes for a predicted 196 amino-acid protein; expressed in transfected cells; host or cells: HEK 293 or COS-7 cells transiently transfected with pRc/CMV carrying the UMP-CMP kinase cDNA; crude lysate used
# Sequence (P30085 1-196): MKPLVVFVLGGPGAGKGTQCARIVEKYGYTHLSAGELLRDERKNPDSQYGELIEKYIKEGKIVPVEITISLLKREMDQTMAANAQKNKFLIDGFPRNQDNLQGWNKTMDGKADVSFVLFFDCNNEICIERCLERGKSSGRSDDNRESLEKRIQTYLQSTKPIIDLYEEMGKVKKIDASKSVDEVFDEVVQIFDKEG
# ASSAY DETAILS: Enzymatic activity assay (NMP phosphorylation, TLC of radiolabelled products)
# Type: biochemical
# CONDITION PARAMETERS: lysates of transfected cells vs vector-transfected cells; FIG. 5A
REPORTED ENDPOINT: phosphorylation of the NMP as substrate (phosphate acceptor), in words

[[record]]
compound = "Nc1ccn([C@@H]2O[C@H](COP(=O)(O)O)[C@@H](O)[C@H]2O)c(=O)n1 [CMP, Cytidine Monophosphate]"
result = "prefers"

[[record]]
compound = "O=c1ccn([C@@H]2O[C@H](COP(=O)(O)O)[C@@H](O)[C@H]2O)c(=O)[nH]1"
result = "prefers"


Recorded values, source patent US20050100998A1.
